Entries annotated with measured Activity
experiment: Antioxidant activity assessed as superoxide oxide free radical scavenging activity at 20 uM; type: physicochemical
ENDPOINT_LABEL: Activity

>>> print(df.to_string())
                                item_smiles  endpoint_label  observed
0  COc1cc(/C=C/C(=O)C(=Cc2ccccc2O)C(=O)/C=C/c2ccc(O)c(OC)c2)ccc1O        Activity     71.9%
1  COc1cc(/C=C/C(=O)C(=Cc2ccccc2)C(=O)/C=C/c2ccc(O)c(OC)c2)ccc1O        Activity     55.5%
2  COc1cc(/C=C/C(=O)C(=Cc2ccc(N(C)C)cc2)C(=O)/C=C/c2ccc(O)c(OC)c2)ccc1O        Activity     52.9%

---

assay: Antioxidant activity assessed as superoxide oxide free radical scavenging activity at 50 uM; type: physicochemical
Threshold check on Activity: strictly below 70% is yes (1); on or above 70% is no (0).

>>> df
                                item_smiles    class
0  COc1cc(/C=C/c2cc(/C=C/c3ccc(O)c(OC)c3)n(C(N)=S)n2)ccc1O   no (0)
1  COc1cc(/C=C/C(=O)C(=Cc2ccc(N(C)C)cc2)C(=O)/C=C/c2ccc(O)c(OC)c2)ccc1O  yes (1)
2  COc1cc(/C=C/c2cc(/C=C/c3ccc(O)c(OC)c3)n(C(=O)c3ccncc3)n2)ccc1O   no (0)
3  COc1cc(/C=C/c2cc(/C=C/c3ccc(O)c(OC)c3)n(-c3ccc([N+](=O)[O-])cc3[N+](=O)[O-])n2)ccc1O  yes (1)
4  COc1cc(/C=C/c2cc(/C=C/c3ccc(O)c(OC)c3)n(C(N)=O)n2)ccc1O  yes (1)
